test system: C. elegans host defense pathway genes; test: nanoString expression of 115 immune- and stress-responsive genes; settings: 100 μM LK molecules, 16 h
Please go through the items and note down their T27F6.8 expression, induction.
One number for each entry, in fold.

{"columns": ["Compound", "Measurement units", "T27F6.8 expression, induction"],
 "data": [
  ["COC(=O)/C=C/C(=O)Nc1ccccc1", "fold", 5.12],
  ["Cc1cc(C2CCCCC2)n(O)c(=O)c1 [Ciclopirox, reference compound]", "fold", 4.80],
  ["O=c1cc(CNc2ccc(Br)cc2)nc2sccn12", "fold", 2.98],
  ["CNC(=O)Oc1c(Br)cc2sc(=O)oc2c1Br", "fold", 1.45],
  ["CN(C)/N=N/c1ccc(-c2cn(Cc3ccccc3)cn2)cc1", "fold", 3.28]
]}

Turning to the following compound.
Task item: Record lookup: for C. elegans host defense pathway genes, what T27F6.8 expression, induction belongs to CCN(CC)/N=N/c1ccc(C(=O)O)cc1 ?
Reply: 3.60

----------
test system: C. elegans host defense pathway genes; assay: nanoString expression of 115 immune- and stress-responsive genes; settings: 100 μM LK molecules, 16 h
Assign t to entries whose Y56A3A.33 expression, induction meets or exceeds 4 fold; assign f to the rest.

See these solved cases before continuing.
{"columns": ["Molecule", "Experimental target", "Class assignment"],
 "data": [
  ["Cc1cc(C2CCCCC2)n(O)c(=O)c1 [Ciclopirox, reference compound]", "C. elegans host defense pathway genes", "f"],
  ["COC(=O)/C=C/C(=O)Nc1ccccc1 [LK32]", "C. elegans host defense pathway genes", "t"],
  ["O=c1cc(CNc2ccc(Br)cc2)nc2sccn12 [LK56]", "C. elegans host defense pathway genes", "f"],
  ["CNC(=O)Oc1c(Br)cc2sc(=O)oc2c1Br [LK34]", "C. elegans host defense pathway genes", "f"]
]}

Now look at this one.
Task item: Quick check, Y56A3A.33 expression, induction >= 4 fold? CN(C)/N=N/c1ccc(-c2cn(Cc3ccccc3)cn2)cc1 [LK38]
Reply: f

----------
Tested on: C. elegans host defense pathway genes
Assay: nanoString expression of 115 immune- and stress-responsive genes
Conditions: 100 μM LK molecules, 16 h
Description: The ratio of MIC to EC was determined for each of the 69 compounds. Analysis of the expression of 115 immune- and stress-responsive genes using nanoString technology. Download Table S1, XLSX file, 0.02 MB. For nanoString-based (nanoString Technologies, Seattle, WA) experiments, 2,000 wild-type, young adult worms were exposed to 100 μM LK molecules or DMSO control in S Basal medium in 6-well plates for 16 h. […]
Please go through the items and note down their H12D21.1 nspa-1 expression, induction.
Please append the unit to your numeric answer.

Could you report H12D21.1 nspa-1 expression, induction for every entry in the following list?
1. O=c1cc(CNc2ccc(Br)cc2)nc2sccn12 [LK56]
2. Cc1cc(C2CCCCC2)n(O)c(=O)c1 [Ciclopirox, reference compound]

Reply:
["2.13 fold", "3.83 fold"]

Could you report H12D21.1 nspa-1 expression, induction for every entry in the following list?
1. CN(C)/N=N/c1ccc(-c2cn(Cc3ccccc3)cn2)cc1 [LK38]
2. CNC(=O)Oc1c(Br)cc2sc(=O)oc2c1Br [LK34]
3. CCN(CC)/N=N/c1ccc(C(=O)O)cc1 [LK35]

Reply:
["0.84 fold", "39.17 fold", "36.00 fold"]

Task item: Would you mind telling me what H12D21.1 nspa-1 expression, induction value was observed for COC(=O)/C=C/C(=O)Nc1ccccc1 [LK32] ?
Reply: 52.37 fold

----------
test system: C. elegans host defense pathway genes; assay: nanoString expression of 115 immune- and stress-responsive genes; settings: 100 μM LK molecules, 16 h
Please go through the items and note down their C32D5.12 expression, induction.
Give bare numbers, in fold.

// worked examples, C32D5.12 expression, induction included
{"columns": ["Compound", "Experimental endpoint", "Measured result"],
 "data": [
  ["Cc1cc(C2CCCCC2)n(O)c(=O)c1 [Ciclopirox, reference compound]", "C32D5.12 expression, induction", 1.22],
  ["CN(C)/N=N/c1ccc(-c2cn(Cc3ccccc3)cn2)cc1", "C32D5.12 expression, induction", 3.71],
  ["CCN(CC)/N=N/c1ccc(C(=O)O)cc1", "C32D5.12 expression, induction", 0.39],
  ["CNC(=O)Oc1c(Br)cc2sc(=O)oc2c1Br", "C32D5.12 expression, induction", 2.84],
  ["O=c1cc(CNc2ccc(Br)cc2)nc2sccn12", "C32D5.12 expression, induction", 1.17]
]}

Turning to the following compound.
Task item: Would you mind telling me what C32D5.12 expression, induction value was observed for COC(=O)/C=C/C(=O)Nc1ccccc1 ?
Reply: 3.70

----------
system: C. elegans host defense pathway genes; assay: nanoString expression of 115 immune- and stress-responsive genes; details: 100 μM LK molecules, 16 h
Please go through the items and note down their C32H11.3 expression, induction.
One number for each entry, in fold.

// worked examples, C32H11.3 expression, induction included
{"columns": ["Compound", "Experimental target", "Measurement units", "C32H11.3 expression, induction"],
 "data": [
  ["COC(=O)/C=C/C(=O)Nc1ccccc1", "C. elegans host defense pathway genes", "fold", 2.32],
  ["CNC(=O)Oc1c(Br)cc2sc(=O)oc2c1Br", "C. elegans host defense pathway genes", "fold", 4.04],
  ["CN(C)/N=N/c1ccc(-c2cn(Cc3ccccc3)cn2)cc1", "C. elegans host defense pathway genes", "fold", 11.99],
  ["O=c1cc(CNc2ccc(Br)cc2)nc2sccn12", "C. elegans host defense pathway genes", "fold", 1.05],
  ["CCN(CC)/N=N/c1ccc(C(=O)O)cc1", "C. elegans host defense pathway genes", "fold", 2.10]
]}

Turning to the following compound.
Task item: Would you mind telling me what C32H11.3 expression, induction value was observed for Cc1cc(C2CCCCC2)n(O)c(=O)c1 [Ciclopirox, reference compound] ?
Reply: 2.02

----------
test system: C. elegans host defense pathway genes; assay: nanoString expression of 115 immune- and stress-responsive genes; conditions: 100 μM LK molecules, 16 h
Please go through the items and note down their F55G11.2 expression, induction.
One number for each entry, in fold.

// worked examples, F55G11.2 expression, induction included
{"columns": ["Molecule", "Measurement units", "Measured result"],
 "data": [
  ["O=c1cc(CNc2ccc(Br)cc2)nc2sccn12 [LK56]", "fold", 2.09],
  ["COC(=O)/C=C/C(=O)Nc1ccccc1 [LK32]", "fold", 3.21]
]}

Task item: Would you mind telling me what F55G11.2 expression, induction value was observed for Cc1cc(C2CCCCC2)n(O)c(=O)c1 [Ciclopirox, reference compound] ?
Reply: 1.86

----------
system: C. elegans host defense pathway genes; experiment: nanoString expression of 115 immune- and stress-responsive genes; conditions: 100 μM LK molecules, 16 h
Experimental endpoint: F59A7.1 clec-206 expression, induction (fold)
Give bare numbers, in fold.

// worked examples, F59A7.1 clec-206 expression, induction included
{"columns": ["Compound", "Measured result"],
 "data": [
  ["CCN(CC)/N=N/c1ccc(C(=O)O)cc1", 9.10],
  ["CN(C)/N=N/c1ccc(-c2cn(Cc3ccccc3)cn2)cc1", 56.72],
  ["COC(=O)/C=C/C(=O)Nc1ccccc1", 3.26]
]}

Turning to the following compound.
Task item: Would you mind telling me what F59A7.1 clec-206 expression, induction value was observed for Cc1cc(C2CCCCC2)n(O)c(=O)c1 [Ciclopirox, reference compound] ?
Reply: 11.44
